assay: logP determination by HPLC on reversed-phase column (C18), EEC Directive 79/831 Annex V.A8; format: physicochemical; settings: reversed-phase C18, acetonitrile/water with formic acid
Measured property: logP

1. Cn1nc(C(F)(F)C(F)(F)F)c(S(C)(=O)=O)c1-n1cc(-c2ccc(Cl)c(C(=O)NC3(C#N)CC3)c2)cn1 [Example I-04] : 2.77
2. Cn1nc(C(F)(F)C(F)(F)F)c(S(C)(=O)=O)c1-n1cc(-c2ccc(Cl)c(C(=O)NC3CC3)c2)cn1 [Example I-07] : 2.78
3. CSc1c(C(F)(F)C(F)(F)F)nn(C)c1-n1cc(-c2ccc(Cl)c(C(=O)NC3(C#N)CC3)c2)cn1 [Example I-02] : 3.56
4. Cn1nc(C(F)(F)C(F)(F)F)c([S+](C)[O-])c1-n1cc(-c2ccc(Cl)c(C(=O)NC3CC3)c2)cn1 (stereo not shown) [Example I-06] : 2.60
5. CCSc1c(C(F)(F)C(F)(F)F)nn(C)c1-n1cc(-c2ccc(Cl)c(C(=O)NC3(C#N)CC3)c2)cn1 [Example I-15] : 3.76
6. Cn1nc(C(F)(F)C(F)(F)F)c([S+](C)[O-])c1-n1cc(-c2ccc(Cl)c(C(=O)NC3(C#N)CC3)c2)cn1 (single isomer, unassigned) [Example I-08] : 2.59
7. Cc1ccc(-c2cnn(-c3c(S(C)(=O)=O)c(C(F)(F)C(F)(F)F)nn3C)c2)cc1C(=O)NC1(C#N)CC1 [Example I-23] : 2.79
8. CSc1c(C(F)(F)C(F)(F)F)nn(C)c1-n1cc(-c2ccc(Cl)c(C(=O)NC3CC3)c2)cn1 [Example I-12] : 3.65
9. Cn1nc(C(F)(F)C(F)(F)F)c([S+](C)[O-])c1-n1cc(-c2cnc(Cl)c(C(=O)NC3(C#N)CC3)c2)cn1 (stereo not shown) [Example I-20] : 2.23
10. Cn1nc(C(F)(F)F)c([S+](C)[O-])c1-n1cc(-c2ccc(Cl)c(C(=O)NC3(C#N)CC3)c2)cn1 (stereo not shown) [Example I-01] : 2.16
11. Cc1ncc(-c2cnn(-c3c([S+](C)[O-])c(C(F)(F)C(F)(F)F)nn3C)c2)cc1C(=O)NC1(C#N)CC1 (stereo not shown) [Example I-10] : 1.99
12. CSc1c(C(F)(F)C(F)(F)F)nn(C)c1-n1cc(-c2ccc(C)c(C(=O)NC3(C#N)CC3)c2)cn1 [Example I-16] : 3.55
13. Cn1nc(C(F)(F)C(F)(F)F)c([S+](C)[O-])c1-n1cc(-c2ccc(Cl)c(C(=O)NC3(C#N)CC3)c2)cn1 (racemic) [Example I-03] : 2.61

* * *

experiment: logP determination by HPLC on reversed-phase column (C18), EEC Directive 79/831 Annex V.A8; assay type: physicochemical; conditions: reversed-phase C18, acetonitrile/water with formic acid
logP reference
Measured property: logP

1) Cc1ncc(-c2cnn(-c3c([S+](C)[O-])c(C(F)(F)C(F)(F)F)nn3C)c2)cc1C(=O)NC1CC1 (stereo not shown) : 1.85
2) Cn1nc(C(F)(F)C(F)(F)F)c([S+](C)[O-])c1-n1cc(-c2ccc(Cl)c(C(=O)NC3(C#N)CC3)c2)cn1 (single isomer, unassigned) [Example I-21] : 2.59
3) CC[S+]([O-])c1c(C(F)(F)C(F)(F)F)nn(C)c1-n1cc(-c2ccc(Cl)c(C(=O)NC3(C#N)CC3)c2)cn1 (stereo not shown) : 2.84
4) CC[S+]([O-])c1c(C(F)(F)C(F)(F)F)nn(C)c1-n1cc(-c2ccc(Cl)c(C(=O)NC3CC3)c2)cn1 (stereo not shown) : 2.88

* * *

Measured mortality in % accompanies every entry in the list below.
Tested on: adult house flies (Musca domestica)
Assay: Musca domestica test (MUSCDO)
Format: in vivo
Conditions: 100 ppm, after 2 days
Source text: Musca domestica—Test (MUSCDO) Solvent: dimethyl sulfoxide 10 adult house flies (Musca domestica) are transferred into a container, containing a sponge soaked with a mixture of sugar solution and compound solution of the desired concentration.
Measured property: mortality in % (%)

1. CCSc1c(C(F)(F)C(F)(F)F)nn(C)c1-n1cc(-c2ccc(Cl)c(C(=O)NC3(C#N)CC3)c2)cn1 [Example I-15] : 90
2. Cn1nc(C(F)(F)C(F)(F)F)c(S(C)(=O)=O)c1-n1cc(-c2ccc(Cl)c(C(=O)NC3(C#N)CC3)c2)cn1 [Example I-04] : 100
3. Cn1nc(C(F)(F)C(F)(F)F)c(S(C)(=O)=O)c1-n1cc(-c2ccc(Cl)c(C(=O)NC3CC3)c2)cn1 [Example I-07] : 100
4. Cc1ccc(-c2cnn(-c3c(S(C)(=O)=O)c(C(F)(F)C(F)(F)F)nn3C)c2)cc1C(=O)NC1CC1 [Example I-09] : 80
5. CCSc1c(C(F)(F)C(F)(F)F)nn(C)c1-n1cc(-c2ccc(Cl)c(C(=O)NC3CC3)c2)cn1 [Example I-11] : 100
6. CSc1c(C(F)(F)C(F)(F)F)nn(C)c1-n1cc(-c2ccc(Cl)c(C(=O)NC3CC3)c2)cn1 [Example I-12] : 100
7. Cn1nc(C(F)(F)C(F)(F)F)c([S+](C)[O-])c1-n1cc(-c2cnc(Cl)c(C(=O)NC3(C#N)CC3)c2)cn1 (stereo not drawn) [Example I-20] : 90
8. Cn1nc(C(F)(F)C(F)(F)F)c([S+](C)[O-])c1-n1cc(-c2ccc(Cl)c(C(=O)NC3CC3)c2)cn1 (stereo not drawn) [Example I-06] : 100
9. Cn1nc(C(F)(F)C(F)(F)F)c([S+](C)[O-])c1-n1cc(-c2ccc(Cl)c(C(=O)NC3(C#N)CC3)c2)cn1 (racemic) [Example I-03] : 100
